Field: Emax. Provide a value for each of the molecules that follow.
Target: human cannabinoid CB2 receptor (Homo sapiens, UniProt P34972)
Construct: expressed in transfected cells; host or cells: Saccharomyces cerevisiae strain MMY23 (integration at the ura3 locus, GPD promoter)
Sequence (P34972 whole entry): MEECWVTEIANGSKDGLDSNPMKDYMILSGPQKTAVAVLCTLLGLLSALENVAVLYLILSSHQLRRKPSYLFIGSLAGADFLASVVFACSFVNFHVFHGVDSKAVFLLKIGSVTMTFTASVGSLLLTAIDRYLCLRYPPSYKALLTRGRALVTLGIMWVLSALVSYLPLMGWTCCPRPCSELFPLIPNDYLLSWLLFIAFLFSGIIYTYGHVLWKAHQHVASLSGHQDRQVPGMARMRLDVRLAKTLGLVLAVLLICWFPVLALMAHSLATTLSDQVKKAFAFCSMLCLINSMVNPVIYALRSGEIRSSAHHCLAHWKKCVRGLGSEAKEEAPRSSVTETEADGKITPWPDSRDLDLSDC
Test: Cannabinoid CB2 receptor agonist activity, yeast reporter assay
Type: cell-based
Details: relative to HU210; yeast cells expressing human CB2; read-out: efficacy value (Emax) at the cloned human cannabinoid CB2 receptor
Procedure: The cannabinoid CB2 receptor agonist activity of the compounds of formula (I) was determined in accordance with the following experimental method. […] Agonists were prepared as 10 mM stocks in DMSO. […] Fluorescence was plotted against compound concentration an iteratively curve fitted using a four parameter fit to generate a concentration effect value. Efficacy (Emax) was calculated from the equation […]
Where a name gives a salt, the structure may show the parent alone.

-- ask Lab note: need Emax with human cannabinoid CB2 receptor (Homo sapiens, UniProt P34972) for entry CC(C)c1nc(Nc2cccc(Cl)c2)ncc1C(=O)NCC1CCCCC1 , please look it up.
-- reply > 50%

-- ask CCc1nc(Nc2cccc(Cl)c2)ncc1C(=O)NCC1CCCCC1 ?
-- reply > 50%

-- ask CCc1nc(Nc2cccc(Cl)c2)ncc1C(=O)NCC1CCOCC1 ?
-- reply > 50%

-- ask CC(c1nc(Nc2cccc(Cl)c2)ncc1C(=O)NCC1CCOCC1)N(C)C (centres unmarked) [Example 5, hydrochloride] ?
-- reply < 50%

-- ask CC(C)c1nc(Nc2cccc(Cl)c2)ncc1C(=O)NCC1CCOCC1 ?
-- reply > 50%
